experiment: Morpholine Test (depression of the partial vapour pressure of morpholine, Raoult variance ratio); type: physicochemical; settings: morpholine (0.25 g) and material (1 g), 37°C, headspace GC
measuredEndpoint: RVR value

• CCOc1cc(C=O)ccc1O = 1.43
• COC(=O)c1c(C)cc(O)c(C)c1O = 1.21
• O=C(OCc1ccccc1)c1ccccc1O [Benzyl salicylate] = 1.58
• OCCc1ccccc1 = 1.24
• O=c1ccc2ccccc2o1 = 1.22
• CC(=O)OC1CCC(C(C)(C)C)CC1 (stereo not drawn) [p-t-Butyl cyclohexyl acetate] = 0.98

All figures here come from patent EP0684037B1.
